Every entry's value here was drawn from ChEMBL document CHEMBL4145442.

Molecular target: Tyrosine-protein kinase Lck (Homo sapiens)
Sequence (P06239 2-509 limits assumed): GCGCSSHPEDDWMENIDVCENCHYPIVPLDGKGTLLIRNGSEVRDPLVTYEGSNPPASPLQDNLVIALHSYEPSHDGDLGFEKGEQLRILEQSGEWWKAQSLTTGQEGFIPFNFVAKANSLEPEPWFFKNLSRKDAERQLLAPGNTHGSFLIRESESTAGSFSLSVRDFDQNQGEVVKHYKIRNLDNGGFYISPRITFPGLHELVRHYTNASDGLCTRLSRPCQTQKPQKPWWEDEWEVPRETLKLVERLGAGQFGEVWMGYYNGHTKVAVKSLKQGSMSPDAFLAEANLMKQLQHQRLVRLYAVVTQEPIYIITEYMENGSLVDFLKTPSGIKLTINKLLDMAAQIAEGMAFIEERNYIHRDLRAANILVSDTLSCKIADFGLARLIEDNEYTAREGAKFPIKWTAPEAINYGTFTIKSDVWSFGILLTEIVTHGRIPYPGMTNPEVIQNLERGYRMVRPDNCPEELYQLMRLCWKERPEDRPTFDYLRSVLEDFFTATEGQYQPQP
Test: Inhibition of LCK (unknown origin) assessed as remaining activity at 3 x 10^-5 M after 120 mins in presence of 33P-ATP (reference value: […]% to […]%)
Conditions: at 30 µM
Quantity: Activity

COc1cc(C)ccc1Oc1nc(Nc2ccc(N3CCOCC3)cc2)ncc1/N=C/c1ccccc1Cl	6.29 to 7.37%
COc1cc(C)ccc1Oc1nc(Nc2ccc(N3CCOCC3)cc2)ncc1NC(=O)Nc1cc(C(F)(F)F)cc(C(F)(F)F)c1	83.5 to 89.8%

Now examine the next entry.
Query :: # query: Activity | item `COc1cc(NC(=O)Nc2cnc(Nc3ccc(N4CCOCC4)cc3)nc2Oc2ccc(C(F)(F)F)cc2)cc(OC)c1` | system: Tyrosine-protein kinase Lck (Homo sapiens)
Result :: 74.2 to 74.8%
